The reported numbers originate from patent EP1077967B1.

Assign IC50 to each entry below.
molecular target: Human recombinant PTP1B (Homo sapiens); construct: made in house; assay: Inhibition of tri-phosphorylated insulin receptor dodecaphosphopeptide dephosphorylation by hPTP1B (malachite green); assay type: biochemical
Sequence (P18031 whole entry): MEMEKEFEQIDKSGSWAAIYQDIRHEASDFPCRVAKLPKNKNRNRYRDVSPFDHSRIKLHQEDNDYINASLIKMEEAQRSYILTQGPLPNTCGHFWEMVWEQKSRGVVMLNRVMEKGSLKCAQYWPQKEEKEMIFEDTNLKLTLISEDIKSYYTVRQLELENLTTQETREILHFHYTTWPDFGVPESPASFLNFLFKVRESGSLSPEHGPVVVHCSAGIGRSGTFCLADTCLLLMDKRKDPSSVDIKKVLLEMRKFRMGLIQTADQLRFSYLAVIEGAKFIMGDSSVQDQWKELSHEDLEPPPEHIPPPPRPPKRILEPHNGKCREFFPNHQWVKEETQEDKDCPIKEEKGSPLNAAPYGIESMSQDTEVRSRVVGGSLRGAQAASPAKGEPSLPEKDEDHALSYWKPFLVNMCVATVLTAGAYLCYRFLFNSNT
Numbers only, in nM.

O=C(O)[C@@H](Cc1ccccc1)Oc1ccc(-c2ccc(-c3c(Cc4ccccc4)oc4ccccc34)cc2)cc1[N+](=O)[O-]: 231

# next molecule below
get_value(item= O=C(c1ccccc1)c1oc2ccccc2c1-c1ccc(-c2ccc(O[C@H](Cc3ccccc3)C(=O)O)c([N+](=O)[O-])c2)cc1 , readout=IC50) returns 788

====

target: rat hepatic microsomal PTPases; experiment: Inhibition of tri-phosphorylated insulin receptor dodecaphosphopeptide dephosphorylation by rat hepatic PTPases (malachite green); details: rat liver microsomal fraction; % Change from Control
Property Label: pIC50
One number for each entry, as −log10 of the molar value.

As a guide, the following entries are already answered.
CC1(C)Oc2ccc(Cc3sc4ccccc4c3-c3ccc(-c4ccc(O[C@H](Cc5ccccc5)C(=O)O)cc4)cc3)cc2O1 [Example 27]: 4.60
O=C(O)[C@@H](Cc1ccccc1)Oc1c(Br)cc(-c2ccc(-c3c(Cc4ccccc4)sc4ccccc34)cc2)cc1Br [Example 37]: 4.43
O=C(O)[C@@H](Cc1ccccc1)Oc1ccc(-c2ccc(-c3c(Cc4ccc(F)cc4)sc4ccccc34)cc2)cc1 [Example 19]: 4.67
COc1ccc(Cc2sc3ccccc3c2-c2ccc(-c3ccc(O[C@H](Cc4ccccc4)C(=O)O)cc3)cc2)c(OC)c1 [Example 26]: 4.70
COc1ccc(-c2cc(-c3ccc(-c4c(Cc5ccccc5)sc5ccccc45)cc3)cc(Br)c2OCC(=O)O)cc1 [Example 3]: 4.52
COc1ccc(Cc2sc3ccccc3c2-c2ccc(-c3ccc(O[C@H](Cc4ccccc4)C(=O)O)cc3)cc2)cc1OC [Example 25]: 4.75

// moving on: another record for pIC50
The compound listed as O=C(O)[C@@H](Cc1ccccc1)Oc1ccc(-c2ccc(-c3c(Cc4ccccc4)sc4ccccc34)cc2)cc1Br [Example 36] has a reported pIC50 of 4.75
